Assay: NCI Yeast Anticancer Drug Screen. Data for the rad50 strain (AID 155);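 also: 0% = growth of vehicle-only cultures of the same strain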
Details: S. cerevisiae rad50 strain growth inhibition; at 33.0 µM; hits give high values
About 79,000 compounds went through this panel and 15% of them were active in at least one assay; those are over-represented in the sample as a whole.
experimental_endpoint: growth inhibition (%)
Provide the reading as a plain figure in %.

Here is how some molecules turned out for growth inhibition.
molecule="CC1CCC2(C(=O)O)CCC3(C)C(=CCC4C5(C)CC(O)C(O)C(C)(CO)C5C(O)CC43C)C2C1C (centres undefined)" experimental_endpoint="growth inhibition" result_number=-28
molecule=CC(=O)Oc1ccc(C(=O)c2ccccc2)c(O)c1 experimental_endpoint="growth inhibition" result_number=32
molecule=COc1cc(CNc2ccc(C(C)C)cc2)cc(OC)c1OC experimental_endpoint="growth inhibition" result_number=-19
molecule=C/C(=N\NC(=S)NC1CCCC1)c1ccccn1 experimental_endpoint="growth inhibition" result_number=99
molecule=CCc1nc(N)nc(N)c1-c1ccc(NCCCCCCN)c([N+](=O)[O-])c1 experimental_endpoint="growth inhibition" result_number=17

## Task Reported growth inhibition for Cc1ccc(S(=O)(=O)Nc2ccc3c(c2)C(O)c2ccccc2-3)cc1 (centres undefined) : what is it?
## Result 48

## Task Reported growth inhibition for `COC(=O)c1ccc2c(c1)Cc1ccccc1-2` : what is it?
## Result 12

## Task Reported growth inhibition for `O=C(N/N=C\c1c(Cl)cccc1Cl)N/N=C/c1c(Cl)cccc1Cl` : what is it?
## Result 14

## Task Reported growth inhibition for `O=[N+]([O-])c1c(/C=N/Nc2ccccc2)oc(-c2ccc3c(c2)OCO3)c1-c1ccc2c(c1)OCO2` : what is it?
## Result 56

## Task Reported growth inhibition for `COc1ccc(N2CN(C)CSC2=S)cc1` : what is it?
## Result 63

## Task Reported growth inhibition for `Oc1ccccc1N=Cc1ccc(Cl)cc1` : what is it?
## Result 59

## Task Reported growth inhibition for `Oc1ccc(C=Nc2ccccc2O)cc1` : what is it?
## Result 84

## Task Reported growth inhibition for `CN(NC(=O)/C(=C/c1ccc(O)cc1)NC(=O)c1ccccc1)c1ccnc2cc(Cl)ccc12` : what is it?
## Result 68

## Task Reported growth inhibition for `Clc1cc(Cc2ccc(N=C/C=C/c3ccccc3)c(Cl)c2)ccc1N=C/C=C\c1ccccc1` : what is it?
## Result 5

* * *

Test: NCI Yeast Anticancer Drug Screen. Data for the cln2 rad14 strain (AID 165);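 also: 0% = growth equal to vehicle treated cultures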
Settings: S. cerevisiae cln2 rad14 strain, at 50.0 µM (retest, dose inferred, filed as 5.0)
The panel holds about 79,000 compounds, 15% with a hit somewhere; the sample as a whole holds those more often. Calls of active or inactive are those of the source. No stated cut-off is given here; in the data, active means growth inhibition above about 70%; inactive means the rest.
Reply using exactly one outcome from TRUE = active, FALSE = inactive

compound=CC(C)(C)[OH+][O-].[O-]c1ccc(Cl)cc1C=Nc1ccc(Cl)cc1[O-].[O]=[V] qualitative_label=FALSE
compound="CCC(c1ccc(O)cc1)C(CC)c1ccc(OCCN)cc1 (stereo unspecified)" qualitative_label=FALSE
compound=O=C1c2cccc3cc([N+](=O)[O-])cc(c23)C(=O)N1CCN1CCCC1 qualitative_label=FALSE
compound=Nc1cc(F)cc2c1-c1ccc(F)cc1C2 qualitative_label=FALSE
compound=Cc1ccc(S(=O)(=O)N(C)c2ccc(Cl)cc2C2=NCCc3ccccc32)cc1 qualitative_label=TRUE
compound=COCCCN(Cc1cc(OC)c(OC)c(OC)c1)C(=S)Nc1cccc(Cl)c1 qualitative_label=FALSE
compound=O=C(O)c1[nH]c(=O)c2ccccc2c1Nc1ccccc1 qualitative_label=FALSE
compound=O=C1CC(=O)N(C2CCCCC2)C(=O)N1c1ccccc1S(=O)(=O)Oc1ccccc1 qualitative_label=TRUE

## Task Look up the recorded call for CC1(C)C(C=O)=CCC1CC(N)=O (stereo unspecified) in this test.
## Result FALSE

## Task Look up the recorded call for `NC(=O)N1c2ccccc2C=Cc2ccccc21` in this test.
## Result FALSE

## Task Look up the recorded call for COc1ccc(N2C(=O)CC(Cl)C2=O)cc1 (stereo unspecified) in this test.
## Result FALSE

## Task Look up the recorded call for `Oc1ccc(Br)cc1C=NC1CCCCC1` in this test.
## Result TRUE

## Task Look up the recorded call for CC1=CC2C(C(C)C)CC1C1C(=O)OC(=O)C21 (stereo unspecified) in this test.
## Result FALSE

## Task Look up the recorded call for CN(C)CC1CCCc2ccccc2C1=O (stereo unspecified) in this test.
## Result FALSE

## Task Look up the recorded call for `CCc1nc(N)nc(N)c1-c1ccc(NCCCCCCN)c([N+](=O)[O-])c1` in this test.
## Result TRUE

* * *

Assay: NCI Yeast Anticancer Drug Screen. Data for the rad18 strain (AID 177)
Details: S. cerevisiae rad18 mutant growth inhibition; at 33.0 µM; hits give high values
Experimental: Growth inhibition of yeast strains with defined genetic alterations is measured as a screen for potential anti-cancer activity. Selected strains with alterations in DNA damage repair or cell cycle control were exposed to compounds and growth inhibition was measured relative to vehicle treated controls. The strain used in this assay is rad18
About 79,000 compounds went through this panel and 15% of them were active in at least one assay; those are over-represented in the sample as a whole.
Values of growth inhibition greater than or equal to 70% map to T; values below map to F.

Past entries and their recorded results:
compound=O=C1C=CC(=O)N1c1ccc(N2C(=O)C=CC2=O)cc1 qualitative_label=T
compound=NC(N)=NCCCS(=O)(=O)Nc1ccc(Nc2c3ccccc3nc3cc([N+](=O)[O-])ccc23)cc1 qualitative_label=F
compound="CC1OC(OC2CCCc3c(O)c4c(c(O)c32)C(=O)c2ccccc2C4=O)CC(N)C1O (stereo unspecified)" qualitative_label=T
compound="CCOP1(=O)C=C(Sc2ccc([N+](=O)[O-])cc2[N+](=O)[O-])C(C)(C)O1 (stereo unspecified)" qualitative_label=F

## Task Does the compound `CCOc1ccc(C(=O)CCC(=O)O)c(C)c1` have recorded growth inhibition that is 70% or more?
## Result F

## Task Does the compound `S=c1[nH]c2c(Cl)c(Cl)c(Cl)c(Cl)c2[nH]1` have recorded growth inhibition that is 70% or more?
## Result T

## Task Does the compound `CN(C)CCNc1cccc2sc3ccc(O)cc3c(=O)c12` have recorded growth inhibition that is 70% or more?
## Result F

## Task Does the compound `O=C1CC(=O)N(C2CCCCC2)C(=O)N1c1ccccc1S(=O)(=O)Oc1ccccc1` have recorded growth inhibition that is 70% or more?
## Result F

## Task Does the compound `C=C(C)[C@@H]1CCc2c(O)c(O)c(=O)cc(C)c2C1` have recorded growth inhibition that is 70% or more?
## Result T

## Task Does the compound `COC(=O)CSc1nnc(CSc2ccc(Cl)cc2)n1-c1ccccc1` have recorded growth inhibition that is 70% or more?
## Result F

## Task Does the compound `COc1cc(NCc2ccc3nc(N)nc(N)c3c2C)cc(OC)c1OC` have recorded growth inhibition that is 70% or more?
## Result F

* * *

Test: NCI Yeast Anticancer Drug Screen. Data for the mlh1 strain (AID 171);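 also: 0% = growth of vehicle-treated control cultures of the same strain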
Settings: S. cerevisiae mlh1 strain growth inhibition; at 11.0 µM; hits give high values
This is part of a sample that, as a whole, favours compounds with a hit. Of some 79,000 tested, about 15% had one in any assay.
experimental_endpoint: growth inhibition (%)
Provide the reading as a plain figure in %.

Here is how some compounds turned out for growth inhibition.
smiles_string=COc1ccc(/C(C#N)=C/c2ccc(OC)c(OC)c2)cc1 result_number=10
smiles_string=S=P(N1CC1)(N1CC1)N1CC1 result_number=-2
smiles_string=O=Nn1c2ccccc2c2ccccc21 result_number=19
smiles_string=COc1cc(NCc2ccc3nc(N)nc(N)c3c2C)cc(OC)c1OC result_number=-5
smiles_string=COCCCN(Cc1cc(OC)c(OC)c(OC)c1)C(=S)Nc1cccc(Cl)c1 result_number=-38

## Task Reported growth inhibition for `O=C(CCc1ccccc1)ON1C(=S)C(c2ccccc2)(c2ccccc2)N=C1Sc1ccccc1` : what is it?
## Result 51

## Task Reported growth inhibition for `CN(N=O)C(=O)N[C@@H](C=O)[C@@H](O)[C@H](O)[C@H](O)CO` : what is it?
## Result 1

## Task Reported growth inhibition for `CN(C)c1ccc(/C=C/c2ccnc3ccccc23)cc1N` : what is it?
## Result -1

## Task Reported growth inhibition for `Nc1ccc2c(=S)c3ccccc3[nH]c2c1` : what is it?
## Result -2

## Task Reported growth inhibition for `Nc1ccc(CCl)cc1Cc1c(O)ccc2ccccc12` : what is it?
## Result 5

## Task Reported growth inhibition for `Cc1onc(-c2ccccc2Cl)c1C1=N/C(=C/c2cc(Cl)cc(Cl)c2O)C(=O)O1` : what is it?
## Result -27

## Task Reported growth inhibition for `CCOC(=O)C1=C(C)NC(C)=C(C(=O)OCC)C1c1ccccc1Cl` : what is it?
## Result -25

Data provenance: PubChem BioAssay (NCI)
